Listing of entries alongside the reported Ki.
target: GCN2 kinase (Homo sapiens); experiment: GCN2 enzyme inhibition assay (Transcreener ADP2 fluorescence polarization); type: biochemical; settings: Enzyme activity for compounds of Formula IV; Ki(app), 280 μM ATP, 25° C.
Sequence (Q9P2K8 whole entry): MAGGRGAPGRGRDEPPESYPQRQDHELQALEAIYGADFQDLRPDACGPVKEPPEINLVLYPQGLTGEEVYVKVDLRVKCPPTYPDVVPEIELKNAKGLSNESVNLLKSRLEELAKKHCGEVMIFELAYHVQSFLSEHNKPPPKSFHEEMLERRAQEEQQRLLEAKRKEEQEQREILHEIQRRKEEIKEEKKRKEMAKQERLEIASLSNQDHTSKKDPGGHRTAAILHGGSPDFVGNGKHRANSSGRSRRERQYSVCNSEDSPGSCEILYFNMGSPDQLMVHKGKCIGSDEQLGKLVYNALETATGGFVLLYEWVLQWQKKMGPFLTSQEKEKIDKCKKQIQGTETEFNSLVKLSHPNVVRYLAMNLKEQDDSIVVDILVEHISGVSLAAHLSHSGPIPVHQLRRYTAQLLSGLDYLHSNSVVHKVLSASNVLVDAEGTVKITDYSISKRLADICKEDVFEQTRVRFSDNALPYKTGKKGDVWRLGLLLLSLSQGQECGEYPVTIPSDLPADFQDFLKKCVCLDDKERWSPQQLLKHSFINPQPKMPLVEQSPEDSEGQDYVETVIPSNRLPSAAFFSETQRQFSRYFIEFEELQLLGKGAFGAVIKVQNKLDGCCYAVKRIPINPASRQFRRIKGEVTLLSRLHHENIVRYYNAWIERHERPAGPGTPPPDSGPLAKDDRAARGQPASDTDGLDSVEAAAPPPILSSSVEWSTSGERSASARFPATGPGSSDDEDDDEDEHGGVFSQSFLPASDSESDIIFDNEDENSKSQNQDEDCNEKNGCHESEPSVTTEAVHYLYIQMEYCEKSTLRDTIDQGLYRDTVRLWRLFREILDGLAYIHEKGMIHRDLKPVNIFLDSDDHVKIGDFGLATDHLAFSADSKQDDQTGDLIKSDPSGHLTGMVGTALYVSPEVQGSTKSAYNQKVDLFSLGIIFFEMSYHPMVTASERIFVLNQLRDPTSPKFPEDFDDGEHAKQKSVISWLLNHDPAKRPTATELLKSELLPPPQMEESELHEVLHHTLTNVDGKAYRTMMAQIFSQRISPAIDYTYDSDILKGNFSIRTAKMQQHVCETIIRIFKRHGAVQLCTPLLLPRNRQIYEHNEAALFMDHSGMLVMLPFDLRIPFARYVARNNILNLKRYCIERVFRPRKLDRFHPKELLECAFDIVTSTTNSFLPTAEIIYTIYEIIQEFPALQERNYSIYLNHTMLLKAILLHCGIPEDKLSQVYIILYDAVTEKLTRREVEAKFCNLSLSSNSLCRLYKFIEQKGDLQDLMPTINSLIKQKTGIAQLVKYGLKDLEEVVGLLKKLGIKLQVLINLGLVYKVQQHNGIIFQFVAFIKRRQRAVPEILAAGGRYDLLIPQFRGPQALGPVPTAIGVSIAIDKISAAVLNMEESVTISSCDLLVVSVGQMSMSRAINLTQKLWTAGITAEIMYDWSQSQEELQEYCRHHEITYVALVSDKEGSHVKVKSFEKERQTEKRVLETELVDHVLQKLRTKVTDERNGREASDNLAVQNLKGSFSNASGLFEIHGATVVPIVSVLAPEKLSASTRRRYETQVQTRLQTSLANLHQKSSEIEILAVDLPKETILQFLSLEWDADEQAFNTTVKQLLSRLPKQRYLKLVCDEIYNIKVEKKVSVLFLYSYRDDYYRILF
Quantity Measured: Ki

CN1CCCC2(CCN(c3ccnc(-c4cnc5cnc(C(F)(F)F)cn45)n3)C2)C1=O (centres unmarked) | 100 to 1000 nM
CC1CC(C(N)=O)C(C)N(c2ccnc(-c3cnc4cnc(C(F)(F)F)cn34)n2)C1 (centres unmarked) [IV-464] | < 10 nM
Nc1cnn(C2CCN(c3ccnc(-c4cnc5cnc(C(F)(F)F)cn45)n3)C2)c1 (centres unmarked) | 100 to 1000 nM
CC1c2ccsc2CCN1c1ccnc(-c2cnc3cnc(C(F)(F)F)cn23)n1 (centres unmarked) | > 1000 nM
OCC1CCN(c2ccnc(-c3cnc4cnc(C(F)(F)F)cn34)n2)C1 (centres unmarked) | 100 to 1000 nM
FC(F)(F)c1cn2c(-c3ccnc(N4CCOC(c5cn[nH]c5)C4)n3)cnc2cn1 (centres unmarked) [IV-40] | 10 to 100 nM
Cc1cc(N2CC(C)NC(c3cn[nH]c3)C2C)nc(-c2cnc3cnc(C(F)(F)F)cn23)n1 (single isomer, unassigned) [IV-669] | 100 to 1000 nM
FC(F)(F)c1cn2c(-c3nccc(N4CCC(c5c[nH]cn5)C4)n3)cnc2cn1 (centres unmarked) | 100 to 1000 nM
N#Cc1ccc(C(=O)N[C@H]2CCCN(c3ccnc(-c4cnc5cnc(C(F)(F)F)cn45)n3)C2)cc1 | > 1000 nM
CC1CN(c2nccc(-c3cnc4cnc(C(F)(F)F)cn34)n2)C(C)C(c2cn[nH]c2)N1 (single isomer, unassigned) [IV-370] | 100 to 1000 nM
NC(=O)C1CCCN(c2ccnc(-c3cnc4cnc(C(F)(F)F)cn34)n2)C1 (centres unmarked) | < 10 nM
C[C@H]1[C@@H](C(N)=O)CCCN1c1ccnc(-c2cnc3cnc(C(F)(F)F)cn23)n1 (racemic) | < 10 nM
CC1C(c2cn[nH]c2)NCCN1c1ccnc(-c2cnc3cnc(C(F)(F)F)cn23)n1 (single isomer, unassigned) [IV-357] | 100 to 1000 nM
CS(=O)(=O)NC1CCCN(c2ccnc(-c3cnc4cnc(C(F)F)cn34)n2)C1 (centres unmarked) | 100 to 1000 nM
CC(=O)N1CCN(c2ccnc(-c3cnc4cnc(CO)cn34)n2)CC1 | 100 to 1000 nM
FC(F)c1cn2c(-c3nccc(N4CCC5(CCC5)C4)n3)cnc2cn1 | 100 to 1000 nM
CS(=N)(=O)c1cccc(-c2ccnc(-c3cnc4cnc(C(F)F)cn34)n2)c1 (centres unmarked) | 100 to 1000 nM
